# Test system: Isolated Rat Bladder Strips
# assay_overview: Inhibition of Contractions in Isolated Rat Bladder Strips (15 mM KCl-enhanced contractile activity)
# Design: species or system Sprague-Dawley rats
# experimental_setup: 0.5 h; isolated rat bladder strips, 15 mM KCl, 30 minute challenge; read-out: IC50, inhibition of contractions in isolated rat bladder strips
measure: IC50 (µM)
Numbers only, in µM.

For orientation, consider the following solved cases.
compound | IC50 (µM)
CC(C)(CO)Nc1c(NCc2ccc(Cl)cc2Cl)c(=O)c1=O | 24
Cc1cc(Cl)cc(Cl)c1CNc1c(NCC(F)(F)C(F)(F)F)c(=O)c1=O | 9.35
CCC(C)(C)Nc1c(N(Cc2ccc(Cl)cc2Cl)C(C)=O)c(=O)c1=O | 15.8
CCC(CC)Nc1c(NCc2ccc(Cl)cc2Cl)c(=O)c1=O | 2
CCC(C)(C)Nc1c(N(Cc2c(C)cc(Cl)cc2Cl)C(=O)OC(C)(C)C)c(=O)c1=O | 4.5

For the 4 compounds below, give their IC50 values.
1. CCC(C)(C)Nc1c(NCc2ccc(Cl)c(Cl)c2)c(=O)c1=O
2. Cc1cc(Cl)cc(Cl)c1CNc1c(NC(C)C(C)(C)F)c(=O)c1=O (stereo not drawn)
3. CC(C)(C)Nc1c(NCc2ccc(Cl)cc2Cl)c(=O)c1=O
4. Cc1cc(Cl)cc(Cl)c1CNc1c(NC(C)(C)C)c(=O)c1=O

Result:
1. 8.9
2. 2.53
3. 1.3
4. 0.22

Where these numbers come from: patent US5763474A
